experiment: Protein binding in dog plasma; format: ADME, cell-free, Canis lupus familiaris; conditions: read-out: PPB (converted)

>  <compound>
Cc1cccc2c1C(c1ccc(Cl)cc1)=N[C@@H](CC(N)=O)c1onc(C)c1-2

>  <result-comparator>
=

>  <fraction unbound>
0.02

$$$$
>  <compound>
Cc1noc2c1-c1ccccc1C(c1ccccc1)=N[C@H]2CC(N)=O

>  <result-comparator>
=

>  <fraction unbound>
0.12

$$$$
>  <compound>
Cc1noc2c1-c1ccccc1C(c1ccc(Cl)cc1)=NC2

>  <result-comparator>
<

>  <fraction unbound>
0.01

$$$$
>  <compound>
Cc1noc2c1-c1ccccc1C(c1ccc(C#N)cc1)=N[C@H]2CC(N)=O

>  <result-comparator>
=

>  <fraction unbound>
0.22

$$$$
>  <compound>
CCNC(=O)C[C@@H]1N=C(c2ccc(Cl)cc2)c2ccccc2-c2c(C)noc21

>  <result-comparator>
=

>  <fraction unbound>
0.02

$$$$
>  <compound>
Cc1noc2c1-c1ccc(-c3ccc(N)nc3)cc1C(c1ccc(Cl)cc1)=N[C@H]2CC(N)=O

>  <result-comparator>
=

>  <fraction unbound>
0.02

$$$$
>  <compound>
Cc1noc2c1-c1ccccc1C(c1ccc(Cl)cc1)=NC2C(N)=O (stereo not given)

>  <result-comparator>
=

>  <fraction unbound>
0.02

$$$$
>  <compound>
COc1ccc(C2=N[C@@H](CC(N)=O)c3onc(C)c3-c3ccccc32)cc1

>  <result-comparator>
=

>  <fraction unbound>
0.14

$$$$
>  <compound>
Cc1ccc(C2=N[C@@H](CC(N)=O)c3onc(C)c3-c3ccccc32)cc1

>  <result-comparator>
=

>  <fraction unbound>
0.08

$$$$
>  <compound>
Cc1noc2c1-c1ccccc1C(c1ccc(Cl)cc1)=N[C@H]2CC(N)=O

>  <result-comparator>
=

>  <fraction unbound>
0.04

$$$$
>  <compound>
COc1ccc2c(c1)C(c1ccc(Cl)cc1)=N[C@@H](CC(N)=O)c1onc(C)c1-2

>  <result-comparator>
=

>  <fraction unbound>
0.03

$$$$
>  <compound>
Cc1noc2c1-c1ccc(-c3cn(C)cn3)cc1C(c1ccc(Cl)cc1)=N[C@H]2CC(N)=O

>  <result-comparator>
=

>  <fraction unbound>
0.11

$$$$
>  <compound>
Cc1noc2c1-c1ccccc1C(c1ccc(Cl)cc1)=N[C@H]2CC(N)C(F)(F)F (stereo not given in full)

>  <result-comparator>
=

>  <fraction unbound>
0.01

$$$$
>  <compound>
COCCNC(=O)C[C@@H]1N=C(c2ccc(Cl)cc2)c2ccccc2-c2c(C)noc21

>  <result-comparator>
=

>  <fraction unbound>
0.03

$$$$
>  <compound>
CCNC(=O)NC1N=C(c2ccc(Cl)cc2)c2ccccc2-c2c(C)noc21 (stereo not given)

>  <result-comparator>
=

>  <fraction unbound>
0.02

$$$$

====

assay: Protein binding in human plasma; format: ADME, cell-free; conditions: read-out: PPB (converted)
test-readout: fraction unbound

>  <compound>
Cc1ccc(C2=N[C@@H](CC(N)=O)c3onc(C)c3-c3ccccc32)cc1

>  <test-readout>
fraction unbound

>  <observed-measurement>
0.1

$$$$
>  <compound>
COc1ccc(C2=N[C@@H](CC(N)=O)c3onc(C)c3-c3ccccc32)cc1

>  <test-readout>
fraction unbound

>  <observed-measurement>
0.12

$$$$
>  <compound>
Cc1noc2c1-c1ccccc1C(c1ccc(C#N)cc1)=N[C@H]2CC(N)=O

>  <test-readout>
fraction unbound

>  <observed-measurement>
0.11

$$$$
>  <compound>
Cc1noc2c1-c1ccccc1C(c1ccc(Cl)cc1)=N[C@H]2CC(N)C(F)(F)F (stereo not given in full)

>  <test-readout>
fraction unbound

>  <observed-measurement>
0.01

$$$$
>  <compound>
Cc1noc2c1-c1ccccc1C(c1ccccc1)=N[C@H]2CC(N)=O

>  <test-readout>
fraction unbound

>  <observed-measurement>
0.19

$$$$

====

assay: Cmax in dog at 2.5 mg/kg,po; format: ADME, organism-based, Canis lupus familiaris; parameters: dose 2.5 mg/kg, route po; conditions: in vivo
test-readout: Cmax

>  <structure-string>
Cc1noc2c1-c1ccccc1C(c1ccc(Cl)cc1)=N[C@H]2CC(N)=O

>  <observed-measurement>
2900 nM

$$$$

====

assay: Cmax in human patient with progression lymphoma at 300 mg,po QD consecutively for 14 days; assay type: ADME; design: time 14 day, dose 300 mg, route po; settings: in vivo
test-readout: Cmax (µM)

>  <structure-string>
Cc1noc2c1-c1ccccc1C(c1ccc(Cl)cc1)=N[C@H]2CC(N)=O

>  <observed-measurement>
5.9

$$$$

====

Reported pEC50 values for a set of molecules
target: Bromodomain-containing protein 4 (Homo sapiens, UniProt O60885); assay: Inhibition of BRD4 BD1 in human MV4-11 cells assessed as reduction of MYC RNA expression after 4 hrs by PCR analysis; format: cell-based
pEC50: −log10 of the molar value.

>  <molecule>
CCNC(=O)NC1N=C(c2ccc(Cl)cc2)c2ccccc2-c2c(C)noc21 (stereo not drawn)

>  <result-comparator>
=

>  <pEC50>
7.00

$$$$
>  <molecule>
Cc1noc2c1-c1cn(C)nc1C(c1ccc(Cl)cc1)=NC2

>  <result-comparator>
=

>  <pEC50>
5.59

$$$$
>  <molecule>
Cc1noc2c1-c1ccccc1C(c1ccc(C#N)cc1)=N[C@H]2CC(N)=O

>  <result-comparator>
=

>  <pEC50>
6.66

$$$$
>  <molecule>
COCCNC(=O)C[C@@H]1N=C(c2ccc(Cl)cc2)c2ccccc2-c2c(C)noc21

>  <result-comparator>
=

>  <pEC50>
6.57

$$$$
>  <molecule>
CNc1ccc2c(n1)C(c1ccc(Cl)cc1)=NCc1onc(C)c1-2

>  <result-comparator>
=

>  <pEC50>
6.36

$$$$
>  <molecule>
Cc1noc2c1-c1ccccc1C(c1ccccc1)=N[C@H]2CC(N)=O

>  <result-comparator>
=

>  <pEC50>
6.60

$$$$
>  <molecule>
Cc1noc2c1-c1c[nH]c(=O)cc1C(c1ccc(Cl)cc1)=NC2

>  <result-comparator>
=

>  <pEC50>
5.96

$$$$
>  <molecule>
COc1ccc2c(c1)C(c1ccc(Cl)cc1)=N[C@@H](CC(N)=O)c1onc(C)c1-2

>  <result-comparator>
=

>  <pEC50>
7.19

$$$$
>  <molecule>
Cc1noc2c1-c1ccc(-c3ccc(N)nc3)cc1C(c1ccc(Cl)cc1)=N[C@H]2CC(N)=O

>  <result-comparator>
=

>  <pEC50>
7.48

$$$$
>  <molecule>
CCNC(=O)C[C@@H]1N=C(c2ccc(Cl)cc2)c2ccccc2-c2c(C)noc21

>  <result-comparator>
=

>  <pEC50>
6.68

$$$$
>  <molecule>
COc1ccc(C2=N[C@@H](CC(N)=O)c3onc(C)c3-c3ccccc32)cc1

>  <result-comparator>
=

>  <pEC50>
6.77

$$$$
>  <molecule>
Cc1noc2c1-c1ccc(=O)n(C)c1C(c1ccc(Cl)cc1)=NC2

>  <result-comparator>
=

>  <pEC50>
5.54

$$$$
>  <molecule>
Cc1ccc(C2=N[C@@H](CC(N)=O)c3onc(C)c3-c3ccccc32)cc1

>  <result-comparator>
=

>  <pEC50>
6.77

$$$$
>  <molecule>
Cc1noc2c1-c1ccccc1C(c1ccc(Cl)cc1)=N[C@H]2CC(N)C(F)(F)F (stereo partly drawn)

>  <result-comparator>
<

>  <pEC50>
5.40

$$$$
>  <molecule>
Cc1noc2c1-c1ccccc1C(c1ccc(Cl)cc1)=NC2C(N)=O (stereo not drawn)

>  <result-comparator>
=

>  <pEC50>
5.40

$$$$
>  <molecule>
Cc1noc2c1-c1ccc(-c3cn(C)cn3)cc1C(c1ccc(Cl)cc1)=N[C@H]2CC(N)=O

>  <result-comparator>
=

>  <pEC50>
7.52

$$$$
>  <molecule>
Cc1nsc2c1C(c1ccc(Cl)cc1)=NCc1onc(C)c1-2

>  <result-comparator>
<

>  <pEC50>
5.40

$$$$
>  <molecule>
Cc1cccc2c1C(c1ccc(Cl)cc1)=N[C@@H](CC(N)=O)c1onc(C)c1-2

>  <result-comparator>
=

>  <pEC50>
6.85

$$$$

====

experiment: Total clearance in dog at 0.5 mg/kg,iv; format: ADME, organism-based, Canis lupus familiaris; conditions: in vivo

>  <compound>
Cc1noc2c1-c1ccccc1C(c1ccc(Cl)cc1)=N[C@H]2CC(N)=O [PELABRESIB]

>  <clearance, mL/min/kg>
1.83

$$$$

====

assay: Volume of distribution at steady state in dog at 0.5 mg/kg,iv; assay type: ADME, organism-based, Canis lupus familiaris; settings: in vivo, read-out: Vdss

>  <molecule>
Cc1noc2c1-c1ccccc1C(c1ccc(Cl)cc1)=N[C@H]2CC(N)=O [PELABRESIB]

>  <unit-descriptor>
L/kg

>  <Vd>
1.2

$$$$
